System: P. aeruginosa (ATCC 27853)
Assay type: cell-based
Measurement context: ATCC 27853
Positions of bridges follow the written chain, without caps; N, C: chain ends. Non-standard residues stand in square brackets, D forms with d. Residues, ends and D or L forms follow the SMILES beside them. *: point of attachment. S(2-cyclohexylethyl) = C1CCC(CCS*)CC1; S(3-Cl-benzyl) = Clc1cccc(CS*)c1; S(3-Methylbutyl) = CC(C)CCS*; X6 = c1ccc(-c2ccc(S*)cc2)cc1; Dab = NCC[C@H](N)C(=O)O; X1 = CC(C)CCCCS*; X4 = CCCCCCS*
Attribute measured: MIC P. aeruginosa (ATCC 27853) (µg/mL)
Number only, in µg/mL; omit the unit.

Known results for compounds:
CC(C)CCCCSSC[C@@H](NC(=O)CN)C(=O)N[C@H](C(=O)N[C@@H](CCN)C(=O)N[C@H]1CCNC(=O)[C@H]([C@@H](C)O)NC(=O)[C@H](CCN)NC(=O)[C@H](CCN)NC(=O)[C@H](CC(C)C)NC(=O)[C@@H](Cc2ccccc2)NC(=O)[C@H](CCN)NC1=O)[C@@H](C)O [Compound 24b] (H-G[dC](X1)T[Dab][Dab][Dab][dF]L[Dab][Dab]T; lactam 5-C); 2
CC(C)C[C@@H]1NC(=O)[C@@H](Cc2ccccc2)NC(=O)[C@H](CCN)NC(=O)[C@@H](NC(=O)[C@H](CCN)NC(=O)[C@@H](NC(=O)[C@H](CSSc2ccc(-c3ccccc3)cc2)NC(=O)CN)[C@@H](C)O)CCNC(=O)[C@H]([C@@H](C)O)NC(=O)[C@H](CCN)NC(=O)[C@H](CCN)NC1=O [Compound 31a] (H-GC(X6)T[Dab][Dab][Dab][dF]L[Dab][Dab]T; lactam 5-C); 8
CC(C)C[C@@H]1NC(=O)[C@@H](Cc2ccccc2)NC(=O)[C@H](CCN)NC(=O)[C@@H](NC(=O)[C@H](CCN)NC(=O)[C@@H](NC(=O)[C@H](CSSCCC2CCCCC2)NC(=O)CN)[C@@H](C)O)CCNC(=O)[C@H]([C@@H](C)O)NC(=O)[C@H](CCN)NC(=O)[C@H](CCN)NC1=O [Compound 23a] (H-GC(S(2-cyclohexylethyl))T[Dab][Dab][Dab][dF]L[Dab][Dab]T; lactam 5-C); 1
CC(C)C[C@@H]1NC(=O)[C@@H](Cc2ccccc2)NC(=O)[C@H](CCN)NC(=O)[C@@H](NC(=O)[C@H](CCN)NC(=O)[C@@H](NC(=O)[C@@H](N)CSSc2ccc(-c3ccccc3)cc2)[C@@H](C)O)CCNC(=O)[C@H]([C@@H](C)O)NC(=O)[C@H](CCN)NC(=O)[C@H](CCN)NC1=O [Compound 29a] (H-C(X6)T[Dab][Dab][Dab][dF]L[Dab][Dab]T; lactam 4-C); 8
CCCCCCSSC[C@H](NC(=O)CN)C(=O)N[C@H](C(=O)N[C@@H](CCN)C(=O)N[C@H]1CCNC(=O)[C@H]([C@@H](C)O)NC(=O)[C@H](CCN)NC(=O)[C@H](CCN)NC(=O)[C@H](CC(C)C)NC(=O)[C@@H](Cc2ccccc2)NC(=O)[C@H](CCN)NC1=O)[C@@H](C)O [Compound 21a] (H-GC(X4)T[Dab][Dab][Dab][dF]L[Dab][Dab]T; lactam 5-C); 2
CC(C)C[C@@H]1NC(=O)[C@@H](Cc2ccccc2)NC(=O)[C@H](CCN)NC(=O)[C@@H](NC(=O)[C@H](CCN)NC(=O)[C@@H](NC(=O)[C@H](N)CSSCc2cccc(Cl)c2)[C@@H](C)O)CCNC(=O)[C@H]([C@@H](C)O)NC(=O)[C@H](CCN)NC(=O)[C@H](CCN)NC1=O [Compound 38] (H-[dC](S(3-Cl-benzyl))T[Dab][Dab][Dab][dF]L[Dab][Dab]T; lactam 4-C); 4
CC(C)CCSSC[C@H](N)C(=O)N[C@H](C(=O)N[C@@H](CCN)C(=O)N[C@H]1CCNC(=O)[C@H]([C@@H](C)O)NC(=O)[C@H](CCN)NC(=O)[C@H](CCN)NC(=O)[C@H](CC(C)C)NC(=O)[C@@H](Cc2ccccc2)NC(=O)[C@H](CCN)NC1=O)[C@@H](C)O [Compound 18a] (H-C(S(3-Methylbutyl))T[Dab][Dab][Dab][dF]L[Dab][Dab]T; lactam 4-C); 2
CC(C)C[C@@H]1NC(=O)[C@@H](Cc2ccccc2)NC(=O)[C@H](CCN)NC(=O)[C@@H](NC(=O)[C@H](CCN)NC(=O)[C@@H](NC(=O)[C@@H](N)CSSCCC2CCCCC2)[C@@H](C)O)CCNC(=O)[C@H]([C@@H](C)O)NC(=O)[C@H](CCN)NC(=O)[C@H](CCN)NC1=O [Compound 19a] (H-C(S(2-cyclohexylethyl))T[Dab][Dab][Dab][dF]L[Dab][Dab]T; lactam 4-C); 4
CC(C)CCSSC[C@@H](NC(=O)CN)C(=O)N[C@H](C(=O)N[C@@H](CCN)C(=O)N[C@H]1CCNC(=O)[C@H]([C@@H](C)O)NC(=O)[C@H](CCN)NC(=O)[C@H](CCN)NC(=O)[C@H](CC(C)C)NC(=O)[C@@H](Cc2ccccc2)NC(=O)[C@H](CCN)NC1=O)[C@@H](C)O [Compound 22b] (H-G[dC](S(3-Methylbutyl))T[Dab][Dab][Dab][dF]L[Dab][Dab]T; lactam 5-C); 1

Here is the next item to consider.
Fill blank: measured MIC P. aeruginosa (ATCC 27853) of the compound CCCCCCSSC[C@@H](NC(=O)CN)C(=O)N[C@H](C(=O)N[C@@H](CCN)C(=O)N[C@H]1CCNC(=O)[C@H]([C@@H](C)O)NC(=O)[C@H](CCN)NC(=O)[C@H](CCN)NC(=O)[C@H](CC(C)C)NC(=O)[C@@H](Cc2ccccc2)NC(=O)[C@H](CCN)NC1=O)[C@@H](C)O [Compound 21b] (H-G[dC](X4)T[Dab][Dab][Dab][dF]L[Dab][Dab]T; lactam 5-C) is ____.
2
